- Test system: HCT-116
- Method: NCI tumour cell line growth inhibition, 48 h
Active and inactive are the calls of the source. Cut-off read from the data, not from the text of the source: active = GI50 up to about 1.1 µM and inactive = higher.
Recorded GI50 for the following compounds

Some entries whose results are on file:
Compound	GI50
CC(CCOc1c2ccoc2cc2oc(=O)ccc12)C1=CC(=O)C(C)(C)O1 (stereo not given)	> 100 µM (inactive)
CC(/C=C/NNC1=NN=C(c2ccccc2)C(c2ccccc2)N1)Sc1ccccc1N (stereo not given)	6.14 µM (inactive)
CC1=CC(=O)C(C)(C2=NC(C)(C)CO2)c2ccccc21 (stereo not given)	> 100 µM (inactive)

Request the reported GI50 associated with Cc1ccc(S(=O)(=O)N2CCSCCSCCN(S(=O)(=O)c3ccc(C)cc3)CCN(S(=O)(=O)c3ccc(C)cc3)CC2)cc1
> 100 µM (inactive)

Request the reported GI50 associated with O=C(/C=C/c1ccc(-c2ccccc2)cc1)NCc1ccc(C(=O)NCCc2c[nH]c3ccccc23)cc1
46.9 µM (inactive)

Request the reported GI50 associated with O=S(=O)(O)c1ccc(/N=N/c2c(O)ccc3ccccc23)cc1
> 100 µM (inactive)

Request the reported GI50 associated with NC1=NCC(CN2CCCCC2)O1 (stereo not given)
> 100 µM (inactive)

###

- System: OVCAR-8
- Method: NCI tumour cell line growth inhibition, 48 h
The source made the active and inactive calls. No stated cut-off is given here; in the data, active = GI50 up to about 1.1 µM and inactive = higher.
Property Name: GI50

Some entries whose results are on file:
Molecule	GI50
O=C1C(=C/C=C2/SC(c3ccccc3)(c3ccccc3)c3ccccc32)C(=O)c2ccccc21	> 100 µM (inactive)
CCSc1nnc(-c2ccccc2)nc1Cc1ccc(OC)cc1	> 100 µM (inactive)
N#Cc1c(N)c(C(=O)O)nn(-c2cccc(C(F)(F)F)c2)c1=O	> 100 µM (inactive)
N=C(N)NS(=O)(=O)c1ccc(NC(=O)c2ccc3nc4ccccc4c(Nc4ccc(S(N)(=O)=O)cc4)c3c2)cc1	> 100 µM (inactive)
CO/C(=C/C(=O)C(Cl)(Cl)Cl)CC/C(=C\C(=O)C(Cl)(Cl)Cl)OC	21.9 µM (inactive)
O=C(CCCc1ccccn1)c1ccccc1	> 100 µM (inactive)
COc1ccc2c(c1)CCc1c(CO)c(COC(=O)NC(C)C)n(C)c1-2	3.33 µM (inactive)
N/N=C1N=C(Cl)/C(=C/c2ccco2)N\1	44.5 µM (inactive)
CCCCc1nccc2c(C)c3[nH]c4ccccc4c3cc12	2.84 µM (inactive)
CN(C)c1cccc(NC2=NCCO2)c1	66.8 µM (inactive)

Pending molecule:
Request the reported GI50 associated with COC(=O)C1=NN2c3ccccc3C(=O)OCCC2C1 (stereo unspecified)
> 100 µM (inactive)

###

- System: LOX IMVI
- Method: NCI tumour cell line growth inhibition, 48 h
The source made the active and inactive calls. Cut-off read from the data, not from the text of the source: active = GI50 up to about 1.1 µM and inactive = higher.
Property Name: GI50

Some entries whose results are on file:
Compound	GI50
Cc1ccc([S+]([O-])c2sccc2C=O)cc1 (configuration not stated)	14.4 µM (inactive)
CC(C)OP(=O)(OC(C)C)C1=NN(c2ccc([N+](=O)[O-])cc2)C(P(=O)(OC(C)C)OC(C)C)=NN1c1ccc([N+](=O)[O-])cc1	> 100 µM (inactive)
COc1cccc(C2SC(=N)Nc3c2c(C)nn3C(=O)c2ccccc2O)c1 (configuration not stated)	> 4.26 µM (inactive)
Cc1ccc(C)c(/C(=N\N=C(N)N)C2CC2)c1	32.4 µM (inactive)
COC1C(=O)CCC2(CO2)C1(O)C1(C)OC1CC=C(C)C (configuration not stated)	5.21 µM (inactive)

Request the reported GI50 associated with CC(C)(C)/N=C/N1C=Cc2nc3ccccc3cc2C1
26.7 µM (inactive)

Request the reported GI50 associated with CCOC(=O)c1c(SC)nc(-c2ccc(Cl)cc2)sc1=N.[O-][Cl+3]([O-])([O-])O
36.4 µM (inactive)

Request the reported GI50 associated with O=C1c2ccccc2C(=O)c2nc3c(O)cccc3cc21
13.9 µM (inactive)

Request the reported GI50 associated with CN1c2ccccc2C2=C(c3ccccc3)CC[C@@H](C(=O)N3C4CC5CC[C@@]4(CS3(=O)=O)C5(C)C)[C@@H]21 (some centres not stated)
> 100 µM (inactive)

Request the reported GI50 associated with COc1ccc(C2CC(C)(O)Oc3cc4c(cc32)OCO4)cc1 (configuration not stated)
27.2 µM (inactive)

Request the reported GI50 associated with CCC1CN2CCc3cc(OC)c(OC)cc3C2CC1CC1c2cc(OC)c(OC)cc2CCN1C(=O)C(Cc1c[nH]c2ccccc12)NC(=O)OC(C)(C)C (configuration not stated)
1.88 µM (inactive)

Request the reported GI50 associated with O=[N+]([O-])c1cccc2nccc(NCCN3CCOCC3)c12
13.4 µM (inactive)

Request the reported GI50 associated with O=C(Cn1c(-c2ccccc2)cc2ccccc21)N1CCOCC1
> 100 µM (inactive)

Request the reported GI50 associated with N#CCC12CC=CCC1=C(O)C(=O)c1ccc(O)cc12 (configuration not stated)
> 100 µM (inactive)

Request the reported GI50 associated with COc1ccc2c(c1)CN1C(=N2)CSC1c1cccc(Br)c1 (configuration not stated)
23.9 µM (inactive)

Request the reported GI50 associated with O=C(c1cscc1CCc1ccccc1)c1cscc1CCc1ccccc1
> 100 µM (inactive)

Request the reported GI50 associated with C[n+]1cn(-c2ccc([N+](=O)[O-])cn2)c2ccccc21
> 100 µM (inactive)

Request the reported GI50 associated with Cc1cc(C)c2c(=O)cc(-c3ccccc3)[nH]c2c1
2.69 µM (inactive)

Request the reported GI50 associated with Nc1ncc2c(n1)-c1ccccc1OC2N1CCCCC1 (configuration not stated)
> 100 µM (inactive)

Request the reported GI50 associated with CSc1sc(=S)sc1C(=O)N(C)c1ccccc1
> 100 µM (inactive)
